Taken from patent US20220033435A1.

molecular target: full-length HAQ STING (Homo sapiens, UniProt Q86WV6, G230A/H232R/R293Q/R71H); construct: Full-Length HAQ STING [STING(1-379)R71H, G230A, H232R,; made in house; host or cells: Trichoplusia ni (Hi-Five) insect cells infected with baculovirus; washed membranes were used; experiment: 3H-cGAMP filtration binding assay (HAQ STING); conditions: competition with tritiated cGAMP ligand, HAQ STING membrane
Sequence (Q86WV6 with tags, fused parts or gaps R71H/G230A/H232R/R293Q): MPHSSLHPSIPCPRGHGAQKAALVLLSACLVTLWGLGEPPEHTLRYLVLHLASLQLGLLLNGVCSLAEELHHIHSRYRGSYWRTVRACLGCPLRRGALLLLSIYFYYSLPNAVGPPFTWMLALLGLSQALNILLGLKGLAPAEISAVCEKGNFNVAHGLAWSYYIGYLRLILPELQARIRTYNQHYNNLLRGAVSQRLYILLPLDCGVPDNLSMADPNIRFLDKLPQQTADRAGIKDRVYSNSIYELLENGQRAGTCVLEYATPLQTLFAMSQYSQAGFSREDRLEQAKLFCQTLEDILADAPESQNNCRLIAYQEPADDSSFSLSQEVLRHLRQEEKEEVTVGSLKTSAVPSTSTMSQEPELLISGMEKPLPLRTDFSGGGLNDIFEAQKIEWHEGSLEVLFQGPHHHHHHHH

| compound | EC50, nM |
| --- | --- |
| Nc1nc2c(ncn2[C@@H]2O[C@@H]3COP(=O)(S)O[C@@H]4[C@H](F)[C@H](n5cnc6c(N)ncnc65)O[C@@H]4COP(=O)(S)O[C@@H]2C3)c(=O)[nH]1 (single isomer, unassigned) [Example 7] | 2.35 |
| Nc1ncnc2c1ncn2[C@@H]1O[C@@H]2COP(=O)(S)O[C@@H]3[C@H](O)[C@@H](COP(=O)(S)O[C@@H]2[C@H]1O)O[C@H]3n1ccc(=O)n2ccnc12 (single isomer, unassigned) [Example 4] | 3690 |
| Nc1ncnc2c1ncn2[C@@H]1O[C@@H]2COP(=O)(S)O[C@@H]3[C@H](O)[C@@H](COP(=O)(S)O[C@@H]2[C@H]1O)O[C@H]3n1ccc(=O)n2ccnc12 (single isomer, unassigned) [Example 5] | 4410 |
| Nc1nc2c(ncn2[C@@H]2O[C@@H]3COP(=O)(S)O[C@@H]4[C@H](F)[C@H](n5cnc6c(N)ncnc65)O[C@@H]4COP(=O)(S)O[C@@H]2C3)c(=O)[nH]1 (single isomer, unassigned) [Example 6] | 48.6 |
